# Test system: CAL-148
# assay-explanation: normalised viability (% of control), CellTiter-Blue; higher = more viable cells (about 100 = DMSO control)
# stated-conditions: incubation time: 72 h
Measured normalised viability values are reported for all entries that follow.
Lab note: write values as number then unit, every time.

What value of normalised viability has been reported for the following compound? COc1cc2nccc(Oc3ccc(NC(=O)C4(C(=O)Nc5ccc(F)cc5)CC4)cc3)c2cc1OC [Cabozantinib] (1000 nM)
78.7%

Now this one: CNCc1ccc(-c2[nH]c3cc(F)cc4c3c2CCNC4=O)cc1 [Rucaparib] (10000 nM)
37.5%

---

# Tested on: DU-4475
# assay-explanation: normalised viability (% of control), CellTiter-Blue; higher = more viable cells (100 = DMSO, 0 = benzethonium chloride kill control)
# stated-conditions: incubation time: 72 h
endpoint: normalised viability (%)
# number only, unit % dropped from output

Below are worked cases with known answers.
Cn1c(Nc2ccc(C(F)(F)F)cc2)nc2cc(Oc3ccnc(-c4ncc(C(F)(F)F)[nH]4)c3)ccc21 [RAF265] (0.1 nM) | 105
CCC1=C[C@@H]2CN(C1)Cc1c([nH]c3ccccc13)[C@@](C(=O)OC)(c1cc3c(cc1OC)N(C)[C@H]1[C@@](O)(C(=O)OC)[C@H](OC(C)=O)[C@]4(CC)C=CCN5CC[C@]31[C@@H]54)C2 [Vinorelbine] (1 nM) | 102
CN[C@@H]1C[C@H]2O[C@@](C)([C@@H]1OC)n1c3ccccc3c3c4c(c5c6ccccc6n2c5c31)C(=O)N[C@H]4O [UCN-01] (1 nM) | 128
C=C(c1ccc(C(=O)O)cc1)c1cc2c(cc1C)C(C)(C)CCC2(C)C [Bexarotene] (1 nM) | 82.5

Fill in: normalised viability of Cc1ccc(C(=O)N(CCCN)[C@@H](c2oc3cc(Cl)ccc3c(=O)c2Cc2ccccc2)C(C)C)cc1 (0.1 nM) is ___
95.9

Now give it for O=C1CCC(N2C(=O)c3ccccc3C2=O)C(=O)N1 (configuration not stated) [Thalidomide] (1 nM) too.
101

COc1cc2nccc(Oc3ccc(NC(=O)C4(C(=O)Nc5ccc(F)cc5)CC4)cc3)c2cc1OC [Cabozantinib] (0.1 nM) , same question.
101
